Hi there, I'd appreciate the recorded Vdu for every entry that follows.
# Tested on: Brain
# stated.conditions: rat, in vivo, 5 h, 0.1 µM
# Description: Unbound volume of distribution in Sprague-Dawley rat brain slices at 100 nM after 5 hrs
Numbers only; they are read as mL/g.

So what's the measured Vdu for this one? Clc1cccc(Cl)c1N=C1NCCN1
5.9

// lookup Vdu for O=C(O)c1ccccc1O
1

What does the data say about its Vdu? Entry: CN(C)CCC=C1c2ccccc2CCc2ccccc21
310

Request the reported Vdu associated with COc1cccc(C2(O)CCCCC2CN(C)C)c1 (stereo not given)
4.2

Query: Vdu; subject: CN(Cc1cnc2nc(N)nc(N)c2n1)c1ccc(C(=O)N[C@@H](CCC(=O)O)C(=O)O)cc1 [METHOTREXATE]
0.68
